Data origin: ChEMBL document CHEMBL1134791

I'd appreciate it if you could supply ED50 values for the items below.
test system: Leishmania donovani; assay: In vitro antiparasitic activity against Leishmania donovani was tested by sigmoidal regression analysis; assay type: functional

(Q) Requested read-out: ED50. Entry: CC1=C(CCC(=O)O)C(=O)c2ccccc2C1=O
(A) > 30 µM

(Q) Requested read-out: ED50. Entry: CC1=C(CCC(=O)NCCCN2CCN(CCCNC(=O)CCC3=C(C)C(=O)c4cccc(O)c4C3=O)CC2)C(=O)c2c(O)cccc2C1=O
(A) > 44 µM

(Q) Requested read-out: ED50. Entry: CN1CCN(C(=O)CCC2=C(CCC(=O)N3CCN(C)CC3)C(=O)c3c(O)cccc3C2=O)CC1
(A) > 62 µM

(Q) Requested read-out: ED50. Entry: O=C(O)CCCCC1=C(CCCCC(=O)O)C(=O)c2c(O)cccc2C1=O
(A) > 80 µM

(Q) Requested read-out: ED50. Entry: CC1=C(CCCC(=O)O)C(=O)c2c(O)cccc2C1=O
(A) > 109 µM
